Target: UniProt P43115
Sequence (P43115 whole entry): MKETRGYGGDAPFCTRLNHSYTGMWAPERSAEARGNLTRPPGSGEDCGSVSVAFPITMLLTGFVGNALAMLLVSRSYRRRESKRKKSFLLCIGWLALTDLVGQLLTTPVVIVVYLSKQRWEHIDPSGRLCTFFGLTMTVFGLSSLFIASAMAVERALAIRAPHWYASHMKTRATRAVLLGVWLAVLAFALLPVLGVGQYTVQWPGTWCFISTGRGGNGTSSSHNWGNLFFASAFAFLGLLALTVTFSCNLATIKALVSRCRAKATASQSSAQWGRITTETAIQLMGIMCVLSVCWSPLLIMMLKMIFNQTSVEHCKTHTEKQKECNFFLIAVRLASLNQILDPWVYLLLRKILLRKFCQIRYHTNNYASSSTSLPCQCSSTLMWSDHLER
Experiment description: Cellular in vitro assay for determining EP3 receptor activity (human EP3 cell line, sulprostone-stimulated calcium luminescence)
Test parameters: CHO cells expressing human EP3 and mitochondrial Clytin; antagonist mode, sulprostone at EC50; read-out: EP3 CHO mtCLY ANTAG IC50
pIC50: −log10 of the molar value. Structures can show the parent of a compound that is named as a salt.

[
  {
    "Compound": "Cc1ccc(-c2cn3nc(C(=O)N[C@@H](c4ccccc4)C(C)(C)O)c(C4CC4)c3c(=O)[nH]2)cc1F",
    "pIC50": 8.89
  },
  {
    "Compound": "C[C@H](NC(=O)c1nn2cc(-c3ccc(Cl)c(F)c3)[nH]c(=O)c2c1C1CC1(F)F)C1CC1 (stereo partly shown)",
    "pIC50": 8.65
  },
  {
    "Compound": "CCN1CC(NC(=O)c2cc3c(=O)[nH]c(-c4ccc5ccccc5c4)cn3n2)(c2ccc(F)cc2)C1 [Example 1-145, formic acid salt]",
    "pIC50": 8.15
  },
  {
    "Compound": "CC(C)(O)[C@@H](NC(=O)c1nn2cc(-c3cc(F)c(Cl)c(F)c3)[nH]c(=O)c2c1C1CC1)c1ccc(F)cc1",
    "pIC50": 8.59
  }
]
